For each entry below, report its inhibition value.
experiment: KLF5 expression inhibitors, primary screen, DLD-1 cells, luminescence (AID 1700); details: DLD-1 KLF5 promoter-luciferase reporter, at 5 µM, active compounds read high;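 note: 0% = DMSO wells and 100% = LY294002 at 200 µM; higher means less KLF5 promoter-driven luciferase light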
In all, about 290,000 compounds went through this assay and about 670 (0.23%) were called active. This excerpt belongs to a sample that is enriched for actives.
Numbers only, in %.

Consider the following illustrative entries.
molecule	test_readout	recorded_value
Cc1ccc(C(=O)N2CC(=O)Nc3ccc(F)cc3C2c2ccc(F)cc2)cc1 (centres undefined)	inhibition	-4.39
Nc1ccc(-c2nnc(-c3ccccc3)o2)cc1	inhibition	-131
NC(=O)c1ccc(Nc2ccc3nonc3c2[N+](=O)[O-])cc1	inhibition	-33
O=C(NCCc1ccc(Cl)cc1)C1CCCN1C(=O)NCc1ccccc1 (centres undefined)	inhibition	-14.2
COc1ccc(NCCc2ccccn2)cc1	inhibition	-36.1

Could you report inhibition for every entry in the following list?
1. CCOC(=O)C(C)Sc1nc2ccccc2c(=O)n1CC1CCCCC1 (centres undefined)
2. O=C(CSc1nc(C2CC2)nc2ccccc12)Nc1cccc(O)c1
3. Cc1ccc(C(=O)NC23CC4CC(CC(C4)C2)C3)c(Cl)c1
4. COc1ccc(C(=O)Nc2ccccc2C(=O)N/N=C/c2ccc(O)c(OC)c2)cc1
5. COc1ccc(CNc2nccs2)cc1
6. Cc1cccc(NC(=O)CSCC(=O)Nc2nnc(C3CC3)s2)c1
7. Oc1c(Cl)cc(Cl)c(Cl)c1Cc1c(O)c(Cl)cc(Cl)c1Cl

Output:
1: -3.75; 2: -13.5; 3: -45.4; 4: 99.4; 5: -8.32; 6: -22.8; 7: 81

Could you report inhibition for every entry in the following list?
1. C=CCn1c(SCc2ccc(C(=O)NCCO)cc2)nc2ccccc2c1=O
2. COc1cc(/C=N/NC(=O)c2ccc(N3CCCC3=O)cc2)ccc1O
3. Cc1ccc2[nH]c(=O)c(CN(CCCN(C)C)C(=O)Nc3cccc(Cl)c3)cc2c1
4. CCC(=O)N(CCc1ccccc1)Cc1cc2cc(C)ccc2[nH]c1=O
5. CCCOc1ccccc1C1CC(=O)Nc2cc3c(cc21)OCO3 (centres undefined)
6. O=C(NCc1cc(F)cc(C(F)(F)F)c1)C1CCC(=O)N(C2CCCC2)C1 (centres undefined)
7. CCOc1cc(/C=C2\C(=N)N3N=C(C)SC3=NC2=O)ccc1OCCOc1ccccc1
8. CC(=O)N1CC(=O)N(CC(=O)Nc2ccc(Br)cc2)C1=S

Output:
1: -13.8; 2: -6.57; 3: 109; 4: -35.9; 5: 46.2; 6: 11.8; 7: -24.1; 8: -0.85

Could you report inhibition for every entry in the following list?
1. Cc1ccc(CN(CC(=O)NCC2CCCO2)S(=O)(=O)c2ccc(C)cc2)cc1 (centres undefined)
2. O=c1c2ccccc2nc2n1C1(CCCCC1)Cc1ccccc1-2
3. COc1cccc(/C=N/Nc2ncc(C(F)(F)F)cc2Cl)c1O
4. COc1cccc(-c2nc(CS(=O)CC(=O)NCc3ccc(F)cc3)c(C)o2)c1 (centres undefined)

Output:
1: -11; 2: -22.6; 3: 101; 4: -11.1

* * *

experiment: KLF5 expression inhibitors, primary screen, DLD-1 cells, luminescence (AID 1700); conditions: DLD-1 KLF5 promoter-luciferase reporter, at 5 µM
About 670 (0.23%) of roughly 290,000 compounds were called active.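 Rule for the calls: active = inhibition above a per-plate limit of that plate's mean compound inhibition plus 3 SD (cut at about 60% in these data); inactive = the rest.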 This is one part of a sample in which actives are shown more often than they occur.
# output must be one of label 1 for active, label 0 for inactive

Below are worked cases with known answers.
compound	qualitative_label
Cc1cc(Oc2ccc(Cl)cc2)nc(SCC(=O)c2ccccc2)n1	label 0
COc1ccc(N=Cc2c(O)[nH]c3ccccc23)cc1OC	label 0
O=C(NCC1CCCO1)c1cc2c([nH]c3ccccc32)c(-c2ccc(F)cc2)n1 (centres undefined)	label 0

Input: Please indicate how the test categorized COc1ccc(NC(=O)C(C)N2c3cccc4cccc(c34)S2(=O)=O)c(OC)c1 (centres undefined) .
Output: label 0

Input: Ok, now CSc1nc(N(C)NC(=O)c2cccc(C)c2)c2ccccc2n1
Output: label 1

Input: Ok, now COCC(=O)N=Nc1c(O)[nH]c2ccccc12
Output: label 0

Input: Ok, now Cc1cccc(C)c1OCCN1CCOCC1
Output: label 0

Input: Ok, now O=C(NCc1ccccc1)C(c1ccccc1)N(C(=O)c1csnn1)c1ccc(F)cc1 (centres undefined)
Output: label 0

Input: Ok, now Cc1ccc(CSc2nsc(C)c2C#N)cc1
Output: label 0

Input: Ok, now COc1ccc(C(=O)NN(C)c2nc(-c3ccccc3)cc(C)c2S(C)(=O)=O)cc1
Output: label 0

Input: Ok, now COC(=O)CNC(=O)c1ccccc1F
Output: label 0

Input: Ok, now Cc1ccc(-c2csc(NC3OC(=O)c4ccccc43)n2)cc1 (centres undefined)
Output: label 0

Input: Ok, now CCOC(=O)c1sc(NC(=O)c2ccncc2)nc1C
Output: label 0

Input: Ok, now CCCCC(C(=O)NC(C)(C)C)N(Cc1ccccc1)C(=O)c1snc(C(N)=O)c1N (centres undefined)
Output: label 0

Input: Ok, now Cc1cc(N/N=C\c2ccc(Br)cc2)nc(-n2nc(C)cc2C)n1
Output: label 0

* * *

test: KLF5 expression inhibitors, primary screen, DLD-1 cells, luminescence (AID 1700); conditions: DLD-1 KLF5 promoter-luciferase reporter, at 5 µM, active compounds read high;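 note: 0% = DMSO wells and 100% = LY294002 at 200 µM; higher means less KLF5 promoter-driven luciferase light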
Out of some 290,000 compounds screened, about 670 (0.23%) were called active. This excerpt belongs to a sample that is enriched for actives.
test_readout: inhibition (%)
Numbers only, in %.

Consider the following illustrative entries.
compound	unit_abbreviation	recorded_value
Cc1ccc(C2CC(=O)NC(SCC(=O)OCc3ccccc3)=C2C#N)o1 (stereo unspecified)	%	6.45
COc1ccc(CS(=O)/C(Cl)=C(/Cl)C(=O)Nc2ccc(OC)nc2)cc1 (stereo unspecified)	%	100
CCOc1cc(C(=O)N2CCc3cc(OC)c(OC)cc3C2)ccc1OC(F)F	%	73.9
Clc1ccc(N/N=C/c2cccs2)nn1	%	-13.3

Could you report inhibition for every entry in the following list?
1. COc1cc2c(cc1OC)CN(C(=O)c1ccc(S(=O)(=O)N3CCCCCC3)cc1)CC2
2. COc1ccc(Cc2nnc(SCC(=O)Nc3ccc(C)c(C)c3)o2)cc1OC
3. COc1ccc(Nc2cc(Cl)ccc2C(=O)O)cn1
4. CCOC(=O)CSC1=C(C#N)C(c2ccco2)C(C(=O)OCc2ccccc2)=C(C)N1 (stereo unspecified)
5. O=C(N/N=C1\CCSC1)c1cc(Cl)ccc1O
6. COc1ccc(C(=O)Nc2ccc(NC(=O)C(C)C)nc2)cc1

Output:
1. -28.3
2. -24.5
3. -11.6
4. -11.8
5. -24.9
6. -35

Input: Given the entry Cc1cc(Cl)c2oc(C(=O)N(C)C(C)c3ccccn3)c(C)c2c1 (stereo unspecified) , report its measured inhibition.
Output: -79

* * *

For each entry below, report its inhibition value.
assay: KLF5 expression inhibitors, primary screen, DLD-1 cells, luminescence (AID 1700); conditions: DLD-1 KLF5 promoter-luciferase reporter, at 5 µM, active compounds read high;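 note: 0% = DMSO wells and 100% = LY294002 at 200 µM; higher means less KLF5 promoter-driven luciferase light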
Screen size: about 290,000 compounds; about 670 (0.23%) were called active. This excerpt belongs to a sample that is enriched for actives.
Give bare numbers, in %.

Could you report inhibition for every entry in the following list?
1. CCOc1ccccc1NC(=O)Cc1cccs1
2. Cc1ccc(O)c(NC(=O)c2cc(-c3ccco3)on2)c1
3. CC(C)c1ccc(NC(=O)Cn2ncc3ccccc32)cc1
4. Cc1ccc(OC(=O)c2cncc(Br)c2)c(C)c1
5. CCCCNC(=O)c1cn(CC)c2cc(N3CCN(C(=O)c4ccco4)CC3)c(F)cc2c1=O
6. O=c1[nH]cccc1-c1nc2ccccc2n1Cc1ccc(Cl)cc1

Output:
1. 4.44
2. -124
3. -106
4. -28.5
5. -2.76
6. -29.9

* * *

assay: KLF5 expression inhibitors, primary screen, DLD-1 cells, luminescence (AID 1700); settings: DLD-1 KLF5 promoter-luciferase reporter, at 5 µM;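 note: 0% = DMSO wells and 100% = LY294002 at 200 µM; higher means less KLF5 promoter-driven luciferase light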
In all, about 290,000 compounds went through this assay and about 670 (0.23%) were called active.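 The calls were made as follows: active = inhibition above a per-plate limit of that plate's mean compound inhibition plus 3 SD (cut at about 60% in these data); inactive = the rest.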 This is one part of a sample in which actives are shown more often than they occur.
# output must be one of active, inactive

compound	qualitative_label
Cc1csc(NC(=O)CSc2nnc(-c3cccnc3)o2)n1	inactive
Cc1ccc(NC(=S)NCCc2ccc(Cl)cc2)c(C)c1	inactive
CC1CCN(C(=O)Cn2nnnc2CN2CCOCC2)CC1	inactive
O=c1cc(-c2ccccc2)[nH]c2cc(F)ccc12	active

Input: Please indicate how the test categorized COc1ccc(Cc2nnc(N/N=C/c3ccccc3O)[nH]c2=O)cc1OC .
Output: active

Input: Ok, now COc1cc2c(cc1O)[C@H](Cc1ccc(Oc3cc(C[C@@H]4NCCc5cc(OC)c(O)cc54)ccc3O)cc1)NCC2
Output: inactive

Input: Ok, now Cc1ccc(NC(=S)NCc2ccccc2Cl)c(C)c1
Output: inactive

Input: Ok, now O=C(CCn1nnnc1CN1CCOCC1)N1CCC(c2ccccc2Cl)C1 (stereo not drawn)
Output: inactive

Input: Ok, now Cc1ccc(S(=O)(=O)N(C)CC(=O)NCCc2c[nH]c3ccccc23)cc1
Output: inactive

Input: Ok, now Cc1c(CC(=O)NCC(=O)NCC(=O)O)c(=O)oc2cc3oc4c(c3cc12)CCCC4
Output: inactive

Input: Ok, now COc1ccc(/C=C(\C#N)c2c[nH]c3ccccc23)cc1
Output: active

Input: Ok, now O=C(c1ccc(F)cc1)N1CCCC(C(=O)N2CCCCC2)C1 (stereo not drawn)
Output: inactive

Input: Ok, now Cc1ccc(NC(=S)Nc2ncccc2C)c(C)c1
Output: active

Input: Ok, now COc1cc(/C=N/Nc2nn3cnnc3c3ccccc23)cc(OC)c1OC
Output: inactive

Input: Ok, now Cc1cc(N)n2nc(-c3ccc(C(C)(C)C)cc3)cc2n1
Output: inactive

Input: Ok, now N#CCSc1nc(-c2ccccc2)nc2ccc(F)cc12
Output: inactive

Input: Ok, now COC(=O)c1cccc(C(=O)N2CCCC(Nc3ccc4c(c3)OCCO4)C2)c1 (stereo not drawn)
Output: inactive

Input: Ok, now O=C(c1cc(-c2ccc(Cl)cc2)on1)N1CCN(c2ccccc2)CC1
Output: inactive

Input: Ok, now COc1cc(/C=C(\C#N)c2nc3ccccc3[nH]2)ccc1O
Output: inactive

Input: Ok, now CCc1ccc(OCC2c3cc(OC)c(OC)cc3CCN2C(C)=O)cc1 (stereo not drawn)
Output: inactive

Input: Ok, now Cc1ccc(-c2cc(=O)c3ccc(Cl)cc3[nH]2)cc1
Output: inactive

Input: Ok, now Nc1nc(SCC(=O)Nc2cc(C(F)(F)F)ccc2Cl)[nH]c(=O)c1NC(=O)c1ccco1
Output: inactive

Input: Ok, now CC(C)Oc1ccc(/C=N/NC(=O)c2nnn(-c3nonc3N)c2CN(C)C2CCCCC2)cc1
Output: inactive

Hey, just so you know, these numbers are from PubChem BioAssay AID1700.
